# System: E. coli TESEC Mtb DapB
# method.description: growth (OD600 after 10 h); higher = more growth (less inhibition)
# protocol.conditions: arabinose induction (level): High; compound 0.1 mM; raw OD600 reference: median of DMSO wells […], cell-free background 0.041
Where a name gives a salt, the structure may show the parent alone.
For each entry below, report its growth value.
Give bare numbers.

The cases that follow already have their growth on record.
INSERT INTO results (compound, reported_metric, obs_value) VALUES
  ('O=C1CC[C@@H](C(=O)N2CSC[C@H]2C(=O)O)N1 [Pidotimod]', 'growth', 0.191),
  ('Cc1cc(NS(=O)(=O)c2ccc(N)cc2)no1 [Sulfamethoxazole]', 'growth', 0.185),
  ('CN(C)CCC(c1ccc(Br)cc1)c1ccccn1 (centres undefined) [Brompheniramine maleate]', 'growth', 0.179),
  ('C[C@@](Cc1ccc(O)c(O)c1)(NN)C(=O)O [Carbidopa]', 'growth', 0.159);

Go through the items and report each one's growth.
1. COc1ccc2cc(CCC(C)=O)ccc2c1 [Nabumetone]
2. CC(C)NC[C@@H](O)COc1cccc2ccccc12 [(R)-Propranolol hydrochloride]
3. CCCCC(=O)O[C@H]1CC[C@H]2[C@@H]3CCc4cc(O)ccc4[C@H]3CC[C@]12C [Estradiol Valerate]
4. CCC(=O)[C@@]1(C)[C@H](C)C[C@H]2[C@@H]3CCC4=CC(=O)C=C[C@]4(C)[C@H]3[C@@H](O)C[C@@]21C [Rimexolone]
5. CN1CCC(=C2c3ccccc3CCc3cccnc32)CC1 [Azatadine maleate]

1: 0.175; 2: 0.193; 3: 0.193; 4: 0.197; 5: 0.18

====

# Test system: E. coli TESEC Mtb Alr
# method.description: growth (OD600 after 10 h); higher = more growth (less inhibition)
# protocol.conditions: arabinose 10000000 nM; compound 0.1 mM; raw OD600 reference: median of DMSO wells 0.146, cell-free background 0.041
Where a name gives a salt, the structure may show the parent alone.
For each entry below, report its growth value.
Give bare numbers.

INSERT INTO assay_data (molecule, obs_value) VALUES
  ('CN(C)CCOC(=O)C(c1ccccc1)C1(O)CCCC1 (centres undefined) [Cyclopentolate hydrochloride]', 0.133),
  ('CN(N=O)C(=O)N[C@H]1C(O)O[C@H](CO)[C@@H](O)[C@@H]1O (mixture of isomers) [Streptozotocin]', 0.0717),
  ('Cc1ccc(/C(=C\CN2CCCC2)c2ccccn2)cc1 [Triprolidine hydrochloride]', 0.141);

Next molecule, please.
Report growth for Nc1ccc(S(=O)(=O)Nc2ccccn2)cc1 [Sulfapyridine] please.
0.141

====

# Tested on: E. coli TESEC Alr+ wild-type control
# method.description: growth (OD600 after 10 h); higher = more growth (less inhibition)
# protocol.conditions: compound 0.1 mM; raw OD600 reference: median of DMSO wells 0.241, cell-free background 0.041
Where a name gives a salt, the structure may show the parent alone.
reported.metric: growth
Give bare numbers.

The cases that follow already have their growth on record.
INSERT INTO assay_data (compound, study_system, reported_metric, obs_value) VALUES
  ('CCc1nc(N)nc(N)c1-c1ccc(Cl)cc1', 'E. coli TESEC Alr+ wild-type control', 'growth', 0.132),
  ('Nc1nc2ccc(OC(F)(F)F)cc2s1 [Riluzole hydrochloride]', 'E. coli TESEC Alr+ wild-type control', 'growth', 0.176),
  ('CC(C)(C(=O)c1cccnc1)c1cccnc1', 'E. coli TESEC Alr+ wild-type control', 'growth', 0.246),
  ('CCCCNc1ccc(C(=O)OCCOCCOCCOCCOCCOCCOCCOCCOCCOC)cc1 [Benzonatate]', 'E. coli TESEC Alr+ wild-type control', 'growth', 0.241);

Next compound, please.
Report growth for CN1CCN(C2=Nc3ccccc3Oc3ccc(Cl)cc32)CC1 [Loxapine succinate] please.
0.166
